The entries below come with measured NanoBRET Fold Response values attached.
# TARGET ENTITY: CXCR1 (Homo sapiens, UniProt P25024)
# Construct: purchased Promega (in-house HiBiT-GPCR construct library, NanoBRET)
# Sequence (P25024 1-350): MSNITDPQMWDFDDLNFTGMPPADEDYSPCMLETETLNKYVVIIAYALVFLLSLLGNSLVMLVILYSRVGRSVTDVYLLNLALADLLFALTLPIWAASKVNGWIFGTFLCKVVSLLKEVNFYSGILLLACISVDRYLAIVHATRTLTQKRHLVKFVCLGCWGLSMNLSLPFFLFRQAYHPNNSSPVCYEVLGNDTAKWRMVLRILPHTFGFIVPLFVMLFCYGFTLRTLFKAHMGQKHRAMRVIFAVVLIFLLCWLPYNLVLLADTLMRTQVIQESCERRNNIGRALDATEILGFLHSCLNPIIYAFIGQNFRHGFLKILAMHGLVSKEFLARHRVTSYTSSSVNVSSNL
# ASSAY NAME: NanoBRET screen HiBiT-CXCR1 in HEK293
# Assay type: binding
# CONDITION SET: CXCR1; tracer 1μM
Form: value (number only, do not type unit).

*Q* Reported NanoBRET Fold Response for CCCn1c(=O)c2[nH]c(-c3ccc(OCC(=O)NCCNC(=O)CCOCCNC(=O)c4ccc(CNC(=O)CCc5ccc6n5[B-](F)(F)[N+]5=C(c7ccc[nH]7)C=CC5=C6)cc4)cc3)nc2n(CCC)c1=O [XAC-3-NB590] : what is it?
*A* 0.91

*Q* Quick one: NanoBRET Fold Response of CC(C)N(CC[C@H](c1ccccc1)c1cc(CCNC(=O)c2ccc(CNC(=O)CCc3ccc4n3[B-](F)(F)[N+]3=C(c5ccc[nH]5)C=CC3=C4)cc2)ccc1O)C(C)C [Tolterodine-BZ-NB590] ?
*A* 1.11

We now examine a further compound.
*Q* For the compound shown here, Cc1cc2c(s1)Nc1ccccc1N=C2N1CCN(CCCNC(=O)CCOCCOCCOCCOCCNC(=O)CCc2ccc3n2[B-](F)(F)[N+]2=C(c4ccc[nH]4)C=CC2=C3)CC1 [Olanzapine-a-2-NB590] , give the reported NanoBRET Fold Response.
*A* 0.99
